Assay: Solubility data of compounds in water over the pH range
Assay type: physicochemical
Conditions: pH 7.6
Where a SMILES comes first, the peptide text is derived from it. Bridges are numbered along the chain shown (N, C = ends). [ ]: non-standard residue; d: D form. The star is where a group is joined. C16 diacid = O=C(O)CCCCCCCCCCCCCCC(=O)*; Hyp = O=C(O)[C@@H]1C[C@@H](O)CN1; NTA = O=C(O)CN(CC(=O)O)CC(=O)*; Nle = CCCC[C@H](N)C(=O)O; AEEA = NCCOCCOCC(=O)O
OBSERVABLE: solubility at 3 days (µM)
Numbers only, in µM.

Reported solubility at 3 days ( CCCC[C@H](NC(=O)[C@H](CCCCNC(=O)CN(CC(=O)O)CC(=O)O)NC(=O)[C@H](CO)NC(=O)[C@H](CCC(N)=O)NC(=O)[C@H](CO)NC(=O)CNC(=O)COCCOCCNC(=O)CCCCCCCCCCCCCCC(=O)O)C(=O)N[C@H]1CCC(=O)NCCCC[C@@H](C(N)=O)NC(=O)[C@H](Cc2c[nH]c3ccccc23)NC(=O)[C@H](CCCNC(=N)N)NC(=O)[C@@H](Cc2ccccc2)NC(=O)[C@@H]2C[C@@H](O)CN2C1=O [Example 21] ({C16 diacid-AEEA}-GSQSK(NTA)[Nle]E[Hyp][dF]RWK-NH2; lactam 7-12) ) = 116
